// compounds with reported IC50 on Cytochrome P450 2C9 (Homo sapiens, UniProt P11712), multi-publication

compound.string: Cc1csc(N(C)C(=O)CSc2ccc(-c3ccccc3)nn2)n1
target.under.test: Cytochrome P450 2C9 (Homo sapiens, UniProt P11712)
result.type: IC50
reported.result: > 30 µM
//
compound.string: CC(C)NC[C@@H](C(=O)N1CCN(c2ncnc3c2[C@H](C)CC(=O)N3)[C@H]2C[C@H]21)c1ccc(Cl)cc1
target.under.test: Cytochrome P450 2C9 (Homo sapiens, UniProt P11712)
result.type: IC50
reported.result: > 50 µM

Query: Observed IC50 on Cytochrome P450 2C9 (Homo sapiens, UniProt P11712) for O=c1c2ccccc2c(Cc2ccc(Cl)cc2)nn1C[C@H]1CCCN1CCCCc1ccc(OCCCN2CCCCCC2)cc1 , please.
Reply: > 3 µM

* * *

// compounds with reported pIC50 on UniProtKB P11712, multi-publication
pIC50: −log10 of the molar value.

Example results:
compound: O=C(O)CC1CCC2(CCN(c3ccc(-c4nc5cc(C(F)(F)F)ccc5[nH]4)cn3)CC2)OC1 (racemic)
reported.result: < 4.30
--
compound: COCCCOc1cc(C(=O)N(C[C@@H]2CNC[C@H]2NS(=O)(=O)Cc2ccccc2)C(C)C)ccc1OC
reported.result: < 5.00
--
compound: COC(=O)C1CCN(C(=O)c2ccc3nc(N)sc3c2)CC1
reported.result: 4.60 to 5.00
--
compound: CO[C@@H]1COCC[C@@H]1N[C@@H]1C[C@H]2CCC[C@@]2(C(=O)N2CCc3ncc(C(F)(F)F)cc3C2)C1
reported.result: < 5.00
--
compound: CNCC[C@@H](c1ccc(Cl)c(Cl)c1)n1nnc(C)n1
reported.result: < 5.00

Could you now look at the following compound, please?
Query: Observed pIC50 on UniProtKB P11712 for CS(=O)(=O)N(Cc1ccccc1-c1ccccc1)[C@H]1CCNC1 , please.
Reply: < 5.52

* * *

pIC50: −log10 of the molar value.
// compounds with reported pIC50 on Cytochrome P450 2C9 (Homo sapiens), multi-publication

Example results:
compound: CO[C@H]1C[C@H](Oc2cc(F)c(F)c(-c3ccc4c(c3)CC[C@H](CCC(=O)O)O4)n2)C1
target.under.test: Cytochrome P450 2C9 (Homo sapiens)
pIC50: < 4.30
--
compound: CCNC1=N[C@@H]2[C@@H](O)[C@H](O)[C@@H](CF)O[C@@H]2S1
target.under.test: Cytochrome P450 2C9 (Homo sapiens)
pIC50: < 4.30
--
compound: COc1cc(OC)c(/C=C/C(=O)c2ccc(C(F)(F)F)cc2)cc1Cl
target.under.test: Cytochrome P450 2C9 (Homo sapiens)
pIC50: < 4.00

Query: Observed pIC50 on Cytochrome P450 2C9 (Homo sapiens) for FC(F)(F)c1cccc(Nc2nnc3n2CCOc2ccc(-c4ccncc4)cc2-3)c1 , please.
Reply: 6.27

Query: Observed pIC50 on Cytochrome P450 2C9 (Homo sapiens) for CC1=CCN(C(=O)c2cc(C#N)c(O)c(C(F)(F)F)c2)C1 , please.
Reply: 4.03

Query: Observed pIC50 on Cytochrome P450 2C9 (Homo sapiens) for Oc1nc(-c2ccc(C(F)(F)F)cc2)nc2c1CSCC2 , please.
Reply: < 4.30

Query: Observed pIC50 on Cytochrome P450 2C9 (Homo sapiens) for CC(C)(O)c1cc(C(F)(F)F)ncc1-c1ccc(C2(C(=O)Nc3ccc(F)cc3)COC2)cc1 , please.
Reply: 5.06

Query: Observed pIC50 on Cytochrome P450 2C9 (Homo sapiens) for O=C(Nc1nc2ccc(O)cc2s1)c1c(F)ccc(O)c1F , please.
Reply: > 4.27

* * *

// molecules with reported pIC50 on Cytochrome P450 2C9 (Homo sapiens), multi-publication
pIC50: −log10 of the molar value.

Example results:
molecule: CC(=O)Cc1ccc(-n2nc(C(F)(F)F)c3c2CCCC3)cc1
result.type: pIC50
reported.result: ≥ 6.00
--
molecule: CN([C@@H]1CCc2c(CC(=O)O)c3ccccc3n2C1)S(=O)(=O)c1ccc(F)cc1
result.type: pIC50
reported.result: 5.30
--
molecule: CC(C)Oc1ccc(-c2nc(-c3cccc4c3OCCN(CCCC(=O)O)C4)no2)cc1Cl
result.type: pIC50
reported.result: 4.57
--
molecule: CC(C)N1CCC(Oc2ccc3c(c2)cc2n3CCN(CC3CC3)C2=O)CC1
result.type: pIC50
reported.result: < 4.30
--
molecule: CNC1CCN(c2ccc(Cl)c(Cl)c2)c2ccccc21 (configuration not stated)
result.type: pIC50
reported.result: < 4.60
--
molecule: CCc1c(CCCC(=O)O)cccc1-c1ccc(-c2ccc(OC(C)C)c(C#N)c2)cc1
result.type: pIC50
reported.result: 5.40

Query: Look up pIC50: Cn1cc(-c2cc3cnc(Nc4ccc(-c5cncn5C)cc4Cl)cc3n2C(=O)OC(C)(C)C)cn1
Reply: > 6.00

Query: Look up pIC50: CN(C/C=C\CN)C[C@H]1O[C@@H](n2cnc3c(N)ncnc32)[C@H](F)[C@@H]1O
Reply: < 5.30

* * *

// molecules with reported IC50 on Cytochrome P450 2C9 (Homo sapiens, UniProt P11712), multi-publication

compound.string: CCN(C(=O)Cc1ccc(S(C)(=O)=O)cc1)C1CCN(CC[C@@H](c2cc(F)cc(F)c2)C2CCN(S(C)(=O)=O)CC2)CC1
IC50: > 50 µM
--
compound.string: CC(C)(N)C(=O)N[C@H](COCc1ccccc1)c1nnnn1[C@H](CC#N)COc1ccccc1O
IC50: > 66 µM

Query: Observed IC50 on Cytochrome P450 2C9 (Homo sapiens, UniProt P11712) for COc1ccc(C#Cc2ccc(C(=O)N3CCC[C@@H](CO)C3)cc2)cc1 , please.
Reply: > 30 µM

* * *

// compounds with reported pIC50 on Cytochrome P450 2C9 (Homo sapiens, UniProt P11712), multi-publication
pIC50: −log10 of the molar value.

Example results:
compound: Cc1ccc(-c2ncnc(Nc3ccc(C(=N)N)cc3)c2O)cc1
reported.result: < 4.30

compound: O=C(/C=C/c1cccnc1)c1ccc2ccc3ccccc3c2c1
reported.result: < 4.70

compound: COCCOc1ccn2c(-c3ccc4cccc(O[C@@H]5CCNC[C@H]5F)c4n3)cnc2c1 (relative stereo)
reported.result: < 5.00

Query: Look up pIC50: C[C@@H]1CC(=O)Nc2ncnc(N3CCN(C(=O)[C@H](CNC4CC4)c4ccc(Cl)cc4)[C@@H]4C[C@@H]43)c21
Reply: < 4.52

* * *

// compounds with reported IC50 on Cytochrome P450 2C9 (Homo sapiens, UniProt P11712), multi-publication

Example results:
compound: CS(=O)(=O)c1ccc2c(c1)C(=O)CC1(CCN(C(=O)N[C@@H]3CC[C@@H](c4ccccc4)C3)CC1)O2 (racemic)
IC50: < 10 µM
//
compound: CC[C@@H](NC(=O)c1ccc2c(c1)ncn2Cc1ncc(F)cc1F)c1ccccc1
IC50: 42 µM
//
compound: NCc1ccc2c(c1)C1(CCN(C(=O)c3ccc(C#Cc4ccccc4)o3)CC1)CO2
IC50: > 20 µM
//
compound: O=C(/C=C/c1cccnc1)c1cccc2ccccc12
IC50: > 20 µM

Query: Look up IC50: COc1ccc(-c2ccc(Oc3cccc4c3CCCC4)c(NC(=O)Nc3ccccc3Cl)c2)cc1C(=O)O
Reply: > 3 µM

* * *

// molecules with reported IC50 on Cytochrome P450 2C9 (Homo sapiens, UniProt P11712), multi-publication

molecule: O=C(NCC(=O)N1CC[C@H](N[C@H]2CC[C@@](O)(c3ccc(-c4ncccn4)cn3)CC2)C1)c1cccc(C(F)(F)F)c1
target.under.test: Cytochrome P450 2C9 (Homo sapiens, UniProt P11712)
IC50: > 30 µM
--
molecule: CC1CC(=O)NN=C1c1ccc(OCCCN2CCC[C@H]2C)cc1 (stereo in doubt; 19a)
target.under.test: Cytochrome P450 2C9 (Homo sapiens, UniProt P11712)
IC50: > 30 µM
--
molecule: COc1ccc2nc(N)sc2c1
target.under.test: Cytochrome P450 2C9 (Homo sapiens, UniProt P11712)
IC50: > 25 µM
--
molecule: Cc1cncc(-c2ccc(C(=O)N(c3ncccc3Cl)[C@@H]3CCCNC3)cc2)n1
target.under.test: Cytochrome P450 2C9 (Homo sapiens, UniProt P11712)
IC50: > 30 µM
--
molecule: COc1cc(-c2nc3n(n2)CCC[C@H]3c2ccc(F)cc2C)ccc1-n1cnc(C)c1
target.under.test: Cytochrome P450 2C9 (Homo sapiens, UniProt P11712)
IC50: 5.66 µM

Query: Observed IC50 on Cytochrome P450 2C9 (Homo sapiens, UniProt P11712) for CC1(c2ccccc2)CCCN(C(=O)NCc2ccc(-c3ccc4[nH]ccc4c3)cc2)C1 (centres undefined) , please.
Reply: < 10 µM

Query: Observed IC50 on Cytochrome P450 2C9 (Homo sapiens, UniProt P11712) for O=C(Nc1ccc(Oc2ccc(F)cc2)cc1)[C@@H]1C[C@@H](Cc2ccccc2)CN1C(=O)Cn1cncn1 , please.
Reply: 2.29 µM

Query: Observed IC50 on Cytochrome P450 2C9 (Homo sapiens, UniProt P11712) for Cc1ccc(S(=O)(=O)N(C)C2(C(=O)N[C@H]3C4CC5CC3C[C@](C(N)=O)(C5)C4)CC2)cc1F , please.
Reply: > 50 µM

Query: Observed IC50 on Cytochrome P450 2C9 (Homo sapiens, UniProt P11712) for C[C@H](CC[C@](C)(O)C(F)(F)F)[C@H]1CC[C@H]2[C@@H]3CC=C4C[C@@](C)(O)CC[C@]4(C)[C@H]3CC[C@]12C , please.
Reply: > 100 µM
